Tgt: MutL H270A (Escherichia coli, UniProt P23367 1-615, H270A)
Assay info: fluorescence anisotropy; AMPPNP (1 mM, Fig 3C); FA: 20 mM HEPES pH 7.5, 150 mM NaCl, 5 mM MgCl2, 0.08% Tween 20, 20% glycerol, 2 mM DTT, 5 nM DNA, 25 C; BLI: 25 mM HEPES pH 7.5, 150 mM NaCl, 5 mM MgCl2, 2 mM
Condition: protein: recombinant; (HisTrap purified); chain copies: 2; label: 5'-FAM on primer S8; 15 bp duplex, 5' overhang 16 nt on template (recessed primer 3' end)
Reported property: pKd
Worth noting: pKd values are minus log10 of concentrations stated in mol/L.

Reported pKd, binder 3' resected primer/template junction (dsDNA) DNA 1: AAGTGTCTGTCGTTTTAAGGACGAAGGACTC DNA 2: GAGTCCTTCGTCCTT : ____
5.80

Each recorded value in this set is attributed to paper PMC9226502.
